B1: TPR t1 (parent)
chain: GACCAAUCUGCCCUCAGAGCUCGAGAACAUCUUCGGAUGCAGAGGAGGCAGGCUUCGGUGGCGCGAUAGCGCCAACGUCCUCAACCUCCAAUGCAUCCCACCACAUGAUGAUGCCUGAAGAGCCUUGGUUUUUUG

Variants of: B1
Procedure summary: polymerase ribozyme fitness, log enrichment relative to wild type (log ratio); higher = more active; in vitro selection for triplet polymerase activity
Dear colleague, classification is by polymerase ribozyme fitness (log ratio), with ranges listed here: lower: < -4; middle: ≥ -4 and < -1; upper: ≥ -1

Mutant code: C20A A66G
Class label: lower
//
Mutant code: G19U A43U G60C C82G
Class label: middle
//
Mutant code: G35A C73U U78G A90G C115G A121C
Class label: lower
//
Mutant code: C124A G128U
Class label: upper
//
Mutant code: U9G A26U C72U
Class label: middle
//
Mutant code: C13U A29U A46U C56A C97U
Class label: middle
//
Mutant code: C64U C94A
Class label: upper
//
Mutant code: G61A C88G
Class label: upper
//
Mutant code: C40A A90C G93U
Class label: middle
